Please respond with reported inhibition at 10 mg/kg for every item in the list.
System: carrageenan foot edema
Experiment: Rat Carrageenan Foot Pad Edema Test
Assay type: in vivo, rat (Male Sprague-Dawley)
Conditions: *@ 10 mg/kg, oral, 3 hours after carrageenan, read-out: RAT PAW EDEMA % Inhibition

Recorded inhibition at 10 mg/kg of CS(=O)(=O)c1ccc(-c2sc(-c3cccs3)nc2-c2ccc(F)cc2)cc1 , please. 20%

Look up inhibition at 10 mg/kg: CS(=O)(=O)c1ccc(-c2sc(-c3c(F)c(F)c(F)c(F)c3F)nc2-c2ccc(F)cc2)cc1 2%

Record request: inhibition at 10 mg/kg value, item CS(=O)(=O)c1ccc(-c2nc(C(F)(F)F)sc2-c2ccc(F)cc2)cc1 20%
